Provenance of the data: ChEMBL document CHEMBL4507327

Target protein (sequence): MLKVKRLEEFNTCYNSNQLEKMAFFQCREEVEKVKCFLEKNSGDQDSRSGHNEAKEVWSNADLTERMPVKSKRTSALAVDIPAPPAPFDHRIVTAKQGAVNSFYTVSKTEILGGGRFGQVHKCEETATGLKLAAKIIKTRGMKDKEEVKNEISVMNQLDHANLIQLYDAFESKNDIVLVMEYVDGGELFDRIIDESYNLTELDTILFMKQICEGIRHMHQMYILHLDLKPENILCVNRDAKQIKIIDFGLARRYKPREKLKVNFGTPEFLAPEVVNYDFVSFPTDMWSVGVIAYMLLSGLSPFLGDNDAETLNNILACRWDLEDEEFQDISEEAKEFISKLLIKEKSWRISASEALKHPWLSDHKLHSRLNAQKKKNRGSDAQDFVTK
Here the recorded IC50 is given for each entry.
Measured property: IC50 (nM)

>>> value_measured("CN1C(=O)[C@@H](N2CCc3cn(Cc4ccccc4)nc3C2=O)COc2ccccc21 [TP-030-1]")
1000
>>> value_measured("CN1C(=O)[C@@H](N2CCc3cn(CC4CCS(=O)(=O)CC4)nc3C2=O)COc2ccccc21 [TP-030n]")
1000
